All figures here come from PubChem BioAssay AID1345083.

- RUN_DESCRIPTION: Cytotoxic Profiling in HEK 293 Cell Line of Diverse Libraries Using Quantitative High-Throughput Screening; note: nearly all actives have a fitted effect of over 60% in size
- EXPERIMENTAL_CONTEXT: HEK 293 viability, ATP luminescence (CellTiter-Glo), 48-72 h; series mostly up to 115 µM
Hit rate of the full screen: of about 94,000 compounds, about 6,200 (6.6%) were called active. Roughly 31% stayed inconclusive and do not appear here. Calls come from the whole dose curve; as a rule, active = well fitted inhibition curve with a large enough effect; inconclusive = small, poorly fitted or top-dose-only effect; inactive = flat fitted curve, though single readings scatter. This is one part of a sample in which actives are shown more often than they occur.
Pick one: true for active, false for inactive

# example entries with known answers
O=C(Cn1c(=O)oc2ccccc21)NC1CCc2nn(CC3CC3)c(=O)n2CC1 (stereo unspecified)
false
COc1ccc(-c2nc3ccncc3[nH]2)cc1
true
COCCN1C(=O)CS(=O)C12CCN(C(=O)NC1CCCC1)CC2 (stereo unspecified)
false
Cc1ccc(N2Cc3c(NC4CCCCC4)ncnc3N(C)CC2=O)cc1
false
CCN(CCn1cccn1)Cc1cnc(S(=O)(=O)Cc2ccccc2)n1CC(C)C
false

Q: Record lookup: outcome of this test for COc1ccc(C(=O)N2CCCC(C(=O)N3CCCC(c4nc5ccncc5[nH]4)C3)C2)cc1 (stereo unspecified) ?
Result: false
